test method notes: qHTS RealTime-Glo MT Cell Viability Assay in HEK293 cells - 40 hour (AID 1224874); also: % is scaled to controls: 0 for no effect and ±100 for the full control effect; nearly all actives have a fitted effect of over 50% in size
run conditions: RealTime-Glo luminescence; stronger effect = lower value
Results filed as inconclusive are left out.

- compound: "Cc1ncc(CO)c(CN)c1O"
  value unit: "%"
  max response: 4.15
- compound: "Oc1ccccc1C=NCc1ccccc1"
  value unit: "%"
  max response: 1.18
- compound: "O=C(Cl)c1cccc([N+](=O)[O-])c1"
  value unit: "%"
  max response: 3.57
- compound: "Cc1ccc(C=O)s1"
  value unit: "%"
  max response: 5.96
- compound: "CC(C)(C)c1ccc(OC(=O)c2ccccc2O)cc1"
  value unit: "%"
  max response: -15.3
- compound: "O=C1CCCCC1C1CCCCC1 (configuration not stated)"
  value unit: "%"
  max response: 11.8
- compound: "CC(=O)OC(C)OC(C)=O"
  value unit: "%"
  max response: 0.965
- compound: "CCCC1CCC(=O)O1 (configuration not stated)"
  value unit: "%"
  max response: 4.54
- compound: "OCCN1CCN(CCO)CC1"
  value unit: "%"
  max response: 1.21
- compound: "CC1(O)CSC(C)(O)CS1 (configuration not stated)"
  value unit: "%"
  max response: 5.86
- compound: "CCOc1ccc(OCC)c(Cl)c1"
  value unit: "%"
  max response: 5.94
- compound: "N#CSCC(=O)O"
  value unit: "%"
  max response: 0.0274
- compound: "CCCCCCCCCC#N"
  value unit: "%"
  max response: 0.388
- compound: "O=C(O)[C@@H]1CSCN1"
  value unit: "%"
  max response: 2.01
- compound: "C=O"
  value unit: "%"
  max response: -2.52
- compound: "CCC/C=C/CO"
  value unit: "%"
  max response: 0.426
- compound: "NC1=NCC2c3ccccc3Cc3ccccc3N12 (configuration not stated)"
  value unit: "%"
  max response: -13.1

====

experimental system: Cytochrome P450 1A2 (Homo sapiens) (UniProt P05177)
Sequence (P05177 whole entry, looked up): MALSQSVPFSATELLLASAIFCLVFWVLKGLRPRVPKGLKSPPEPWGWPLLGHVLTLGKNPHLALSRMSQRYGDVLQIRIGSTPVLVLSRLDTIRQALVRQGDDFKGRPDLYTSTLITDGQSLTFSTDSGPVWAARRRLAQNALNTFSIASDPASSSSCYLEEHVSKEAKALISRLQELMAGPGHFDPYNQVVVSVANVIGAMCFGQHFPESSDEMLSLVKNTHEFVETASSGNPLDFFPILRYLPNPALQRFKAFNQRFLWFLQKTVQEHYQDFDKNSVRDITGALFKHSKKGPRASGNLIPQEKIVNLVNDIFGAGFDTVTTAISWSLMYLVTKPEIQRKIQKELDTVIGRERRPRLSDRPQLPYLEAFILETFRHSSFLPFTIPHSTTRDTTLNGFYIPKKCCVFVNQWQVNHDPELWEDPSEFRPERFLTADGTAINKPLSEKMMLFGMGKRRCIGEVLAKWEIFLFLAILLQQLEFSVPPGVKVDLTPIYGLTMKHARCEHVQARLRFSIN
test method notes: Cytochrome P450 Family 1 Subfamily A Member 2 (CYP1A2) small molecule antagonists: luciferase reporter qHTS assay (AID 1671199); also: nearly all actives have a fitted effect of over 50% in size; also: potency is read from the fitted curve at half-maximal effect
run conditions: P450-Glo CYP1A2 enzyme, luciferin luminescence, 1 h; series mostly up to 53 µM
Records with an inconclusive call do not appear. Active and inactive are the calls of the source. The call rests on the fitted dose curve; in most records, active means well fitted inhibition curve with a large enough effect in the repeat runs; inconclusive means weak or mixed curves; inactive means no such curve, though single readings can be large or run the other way.
measured endpoint: Potency

- compound: "CCN(CC)CCOc1ccc(Cc2ccccc2)cc1"
  result: "inactive"
- compound: "CN(CC1(C)CCCO1)S(=O)(=O)c1ccc(Cl)c(S(N)(=O)=O)c1 (stereo unspecified)"
  result: "inactive"
- compound: "CC1(C)C(=O)N(Cl)C(=O)N1Br"
  result: "inactive"
- compound: "OCc1ccccc1O"
  result: "inactive"
- compound: "CN1[C@@H]2CC[C@H]1CC(OC(=O)c1c[nH]c3ccccc13)C2 (stereo partly specified)"
  result: "inactive"
- compound: "O=C(O[C@@H](C(=O)O)[C@@H](OC(=O)c1ccccc1)C(=O)O)c1ccccc1"
  result: "72.2 µM (active)"

====

test method notes: qHTS assay to identify small molecule antagonists of the sonic hedgehog signaling (Shh) pathway (AID 1259369); also: nearly all actives have a fitted effect of over 45% in size
run conditions: NIH/3T3 Gli1-Luc reporter, Shh antagonist, luminescence 24 h; series mostly up to 92.4 µM
Records with an inconclusive call do not appear. Active and inactive are the calls of the source. The call rests on the fitted dose curve.
Possible outcomes: 1.0 = active, 0.0 = inactive

- molecule: "Cc1ccsc1C(=CCCN1CCC[C@@H](C(=O)O)C1)c1sccc1C"
  classification: 0.0
- molecule: "Cc1ccc(C=O)s1"
  classification: 1.0
- molecule: "CC1(C)S[C@@H]2[C@H](NC(=O)C(C(=O)O)c3ccccc3)C(=O)N2[C@H]1C(=O)O (some centres not stated)"
  classification: 0.0
- molecule: "CCN(CC)CCNC(=O)COc1ccc(Cl)cc1"
  classification: 0.0
- molecule: "CC(C)O"
  classification: 1.0
- molecule: "O=Cc1ccc(F)c(Br)c1"
  classification: 0.0
- molecule: "Cc1ncc(CO)c(CN)c1O"
  classification: 0.0
- molecule: "CCOC(=O)c1cc(=O)c2c(OCC(COc3cccc4oc(C(=O)OCC)cc(=O)c34)OC(=O)[C@@H](N)CCCCN)cccc2o1"
  classification: 0.0
- molecule: "CCN(CCCc1ccccc1)CCCc1ccccc1"
  classification: 0.0
- molecule: "C[C@]12CCC(=O)C=C1CC[C@@H]1[C@@H]2CC[C@@]2(C)[C@H]1CC[C@]2(O)C(=O)CO"
  classification: 0.0
- molecule: "OCc1c2ccccc2cc2ccccc12"
  classification: 0.0
- molecule: "O=C1CCN(c2ccccc2)N1"
  classification: 0.0
- molecule: "CC1(C)C(=O)N(Cl)C(=O)N1Br"
  classification: 0.0
- molecule: "O=C(Cl)c1cccc([N+](=O)[O-])c1"
  classification: 0.0
- molecule: "CN1CCC[C@@H]1Cc1c[nH]c2ccc(CCS(=O)(=O)c3ccccc3)cc12"
  classification: 1.0
- molecule: "CN(CC1(C)CCCO1)S(=O)(=O)c1ccc(Cl)c(S(N)(=O)=O)c1 (configuration not stated)"
  classification: 0.0
- molecule: "CCCNC(C)(C)COC(=O)c1ccccc1"
  classification: 0.0
- molecule: "O=C(CC(=O)C(F)(F)F)c1ccccc1"
  classification: 0.0
- molecule: "CC1=NN(c2cc(Cl)c(S(=O)(=O)O)cc2Cl)C(=O)C1N=Nc1ccc(S(=O)(=O)O)cc1 (configuration not stated)"
  classification: 0.0
- molecule: "O=C1Nc2ccc([N+](=O)[O-])cc2C1=O"
  classification: 0.0
- molecule: "Nc1ccc2ccccc2c1S(=O)(=O)O"
  classification: 0.0
- molecule: "COC(C)CCO (configuration not stated)"
  classification: 0.0
- molecule: "NC(=O)NS(=O)(=O)c1ccc(Cl)cc1"
  classification: 0.0
- molecule: "CC(C)OC(C)C"
  classification: 0.0
- molecule: "O=C(O)C(=O)Cc1c[nH]c2ccccc12"
  classification: 0.0
- molecule: "CCCNC(C)C(=O)Nc1c(C)csc1C(=O)OC (configuration not stated)"
  classification: 0.0
- molecule: "C=Cc1ccccc1"
  classification: 0.0

====

test method notes: qHTS assay to identify small molecule agonists of the estrogen receptor beta (ER-beta) signaling pathway - cell viability counter screen (AID 1259380); also: nearly all actives have a fitted effect of over 30% in size
run conditions: ER-beta-bla HEK293T viability, CellTiter-Glo luminescence, 16 h; series mostly up to 92.4 µM
Text: National Center for Advancing Translational Sciences [NCATS] NIH Chemical Genomics Center [NCGC] U.S. Environmental Protection Agency [EPA] National Institutes of Environmental Health Sciences [NIEHS] National Toxicology Program [NTP] U.S. Food and Drug Administration [FDA] Estrogen receptor (ER), a nuclear hormone receptor, plays an important role in development, metabolic homeostasis and reproduction. […]
Records with an inconclusive call do not appear. Calls of active or inactive are those of the source. The call rests on the fitted dose curve; in most records, active means well fitted cell-killing curve with a large enough effect in the repeat runs; inconclusive means weak or mixed curves, or effect the other way; inactive means flat fitted curve, though single readings scatter.
Possible outcomes: class 1 = active, class 0 = inactive

- compound: "Cc1ccccc1C(=O)Nc1ccc(C(=O)N2CCCC(O)c3cc(Cl)ccc32)c(C)c1 (stereo not drawn)"
  classification: "class 1"
- compound: "CCC/C=C/CO"
  classification: "class 0"
- compound: "FC(F)(F)C(F)(F)C(F)(F)C(F)(F)C(F)(F)C(F)(F)C(F)(F)C(F)(F)Br"
  classification: "class 0"
- compound: "O=C(CCCl)NCc1ccccc1"
  classification: "class 0"
- compound: "CC(CNC1CCCCC1)OC(=O)c1ccccc1 (stereo not drawn)"
  classification: "class 0"
- compound: "O=C1CCC(C2CCCCC2)CC1"
  classification: "class 0"
- compound: "Nc1ccc2ccccc2c1S(=O)(=O)O"
  classification: "class 0"
- compound: "ClC(Cl)Cl"
  classification: "class 0"
- compound: "NC/C=C/C(=O)O"
  classification: "class 0"
- compound: "CCCCc1ccc2nc(NC(=O)OC)[nH]c2c1"
  classification: "class 0"
- compound: "Cc1c(C(=O)NCCO)[n+](=O)c2ccccc2n1[O-]"
  classification: "class 0"
- compound: "CC(=O)OC1C2(C)CCC(C2)C1(C)C (stereo not drawn)"
  classification: "class 0"
- compound: "OCCN1CCN(CCO)CC1"
  classification: "class 0"
- compound: "N#CSCC(=O)O"
  classification: "class 0"
- compound: "CCCC1CCC(=O)O1 (stereo not drawn)"
  classification: "class 0"
- compound: "CCCCCCCCOC(=O)CCCCCCCCC(=O)OCCCCCCCC"
  classification: "class 0"
- compound: "CC(C)CC(=O)OCc1ccccc1"
  classification: "class 0"
- compound: "COc1ccc2nc(NC(=O)Nc3ccccc3)sc2c1"
  classification: "class 1"
- compound: "NS(=O)(=O)c1cc(-c2nn[nH]n2)c(NCc2cccs2)cc1Cl"
  classification: "class 0"
- compound: "CN(C)CCOc1ccccc1Cc1ccccc1"
  classification: "class 1"
- compound: "Cc1c(N)cccc1N"
  classification: "class 0"
- compound: "ICCc1ccccc1"
  classification: "class 0"
- compound: "CCCCCCOc1ccc(N)cc1"
  classification: "class 1"
